- assay.comment: Pharmacokinetics analysis, plasma (LC-MS/MS)
- Assay type: in vivo, mouse
- study.conditions: male, C57BL/6J, mouse, plasma, intraperitoneal, 5 mg/kg, 5 mg/kg (IP), 1.5 h, n = 3; read-out: Plasma Conc., Mean
measurement.label: concentration at 1.5 h

molecule: O=C(O)c1ccc(N2C(=O)C(=Cc3ccccc3)SC2=S)cc1 (stereo in doubt) [BML-260]
measurement.label: concentration at 1.5 h
observed.measurement: 6.55 ng/mL

###

- subject.of.test: GST-tagged-DUSP22 (Homo sapiens)
- Sequence (Q9NRW4 whole entry): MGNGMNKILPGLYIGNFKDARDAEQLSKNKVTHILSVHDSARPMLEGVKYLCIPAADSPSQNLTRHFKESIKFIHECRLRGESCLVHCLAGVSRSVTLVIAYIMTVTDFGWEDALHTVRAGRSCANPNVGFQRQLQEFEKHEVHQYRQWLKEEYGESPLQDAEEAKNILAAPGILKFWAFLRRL
measurement.label: IC50 (µM)

molecule: O=C(O)c1ccc(N2C(=O)C(=Cc3ccccc3)SC2=S)cc1 (stereo in doubt) [BML-260]
observed.measurement: 54

###

- assay.comment: Pharmacokinetics analysis, TA muscle (LC-MS/MS)
- Type: in vivo, mouse
- study.conditions: male, C57BL/6J, mouse, tibialis anterior (TA) muscle, intraperitoneal, 5 mg/kg, 5 mg/kg (IP), 6 h, TA muscle, individual animals; read-out: Muscle Conc. before dilution factor

compound: O=C(O)c1ccc(N2C(=O)C(=Cc3ccccc3)SC2=S)cc1 (stereo in doubt) [BML-260]
units.text: ng/mL
concentration at 6 h: 3.9

###

- assay.comment: Pharmacokinetics analysis, TA muscle (LC-MS/MS)
- Format: in vivo, mouse
- study.conditions: male, C57BL/6J, mouse, tibialis anterior (TA) muscle, intraperitoneal, 5 mg/kg, 5 mg/kg (IP), 0.5 h, TA muscle, individual animals; read-out: Muscle Conc. before dilution factor
- Description: Assessment of BML-260 pharmacokinetics (PK) was carried out by the company Chaon, Yongin-si, Republic of Korea. BML-260 was administered intraperitoneally at a dose of 5 mg/kg in an injection volume of 10 mL/kg. […] BML-260 levels in plasma and tissue samples were analyzed with liquid chromatography-tandem mass spectrometry (LC-MS/MS) using an Agilent 1200 HPLC system coupled with an AB Sciex 4000 QTrap MS/MS (Agilent Technologies, CA, USA). […]

compound: O=C(O)c1ccc(N2C(=O)C(=Cc3ccccc3)SC2=S)cc1 (stereo in doubt) [BML-260]
units.text: ng/mL
concentration at 0.5 h: 84.6

###

- assay.comment: Pharmacokinetics analysis, TA muscle (LC-MS/MS)
- Type: in vivo, mouse
- study.conditions: male, C57BL/6J, mouse, tibialis anterior (TA) muscle, intraperitoneal, 5 mg/kg, 5 mg/kg (IP), 2 h, TA muscle, individual animals; read-out: Muscle Conc. before dilution factor

compound: O=C(O)c1ccc(N2C(=O)C(=Cc3ccccc3)SC2=S)cc1 (stereo in doubt) [BML-260]
concentration at 2 h: 41.5 ng/mL

###

- assay.comment: Pharmacokinetics analysis, plasma (LC-MS/MS)
- Type: in vivo, mouse
- study.conditions: male, C57BL/6J, mouse, plasma, intraperitoneal, 5 mg/kg, 5 mg/kg (IP), 0.25 h, individual animals; read-out: Plasma Conc.

compound: O=C(O)c1ccc(N2C(=O)C(=Cc3ccccc3)SC2=S)cc1 (stereo in doubt)
units.text: ng/mL
concentration at 0.25 h: 18.1

###

- assay.comment: Pharmacokinetics analysis, plasma (LC-MS/MS)
- Assay type: in vivo, mouse
- study.conditions: male, C57BL/6J, mouse, plasma, intraperitoneal, 5 mg/kg, 5 mg/kg (IP), 2 h, individual animals; read-out: Plasma Conc.

compound: O=C(O)c1ccc(N2C(=O)C(=Cc3ccccc3)SC2=S)cc1 (stereo in doubt)
concentration at 2 h / ng/mL: 4.85

###

- assay.comment: Pharmacokinetics analysis, plasma (LC-MS/MS)
- Assay type: in vivo, mouse
- study.conditions: male, C57BL/6J, mouse, plasma, intraperitoneal, 5 mg/kg, 5 mg/kg (IP), 8 h, n = 3; read-out: Plasma Conc., Mean

compound: O=C(O)c1ccc(N2C(=O)C(=Cc3ccccc3)SC2=S)cc1 (stereo in doubt)
units.text: ng/mL
concentration at 8 h: 0.271

###

- assay.comment: Pharmacokinetics analysis, plasma (LC-MS/MS)
- Format: in vivo, mouse
- study.conditions: male, C57BL/6J, mouse, plasma, intraperitoneal, 5 mg/kg, 5 mg/kg (IP), 0.5 h, n = 3; read-out: Plasma Conc., Mean

molecule: O=C(O)c1ccc(N2C(=O)C(=Cc3ccccc3)SC2=S)cc1 (stereo in doubt) [BML-260]
concentration at 0.5 h, ng/mL: 10.3

###

- assay.comment: Pharmacokinetics analysis, TA muscle (LC-MS/MS)
- Assay type: in vivo, mouse
- study.conditions: male, C57BL/6J, mouse, tibialis anterior (TA) muscle, intraperitoneal, 5 mg/kg, 5 mg/kg (IP), 6 h, TA muscle, n = 3; read-out: Muscle Conc., Mean
- Method: Assessment of BML-260 pharmacokinetics (PK) was carried out by the company Chaon, Yongin-si, Republic of Korea. BML-260 was administered intraperitoneally at a dose of 5 mg/kg in an injection volume of 10 mL/kg. […] BML-260 levels in plasma and tissue samples were analyzed with liquid chromatography-tandem mass spectrometry (LC-MS/MS) using an Agilent 1200 HPLC system coupled with an AB Sciex 4000 QTrap MS/MS (Agilent Technologies, CA, USA). […]

molecule: O=C(O)c1ccc(N2C(=O)C(=Cc3ccccc3)SC2=S)cc1 (stereo in doubt)
units.text: ng/g
concentration at 6 h: 17

###

- assay.comment: Pharmacokinetics analysis, plasma (LC-MS/MS)
- Type: in vivo, mouse
- study.conditions: male, C57BL/6J, mouse, plasma, intraperitoneal, 5 mg/kg, 5 mg/kg (IP), 0.5 h, individual animals; read-out: Plasma Conc.

compound: O=C(O)c1ccc(N2C(=O)C(=Cc3ccccc3)SC2=S)cc1 (stereo in doubt)
concentration at 0.5 h, ng/mL: 11.4
